// provenance: patent US9670210B2

# key: entry, value: IC50
target: LSD-1 enzyme (Homo sapiens (Human), UniProt O60341)
testReadout: IC50

[[record]]
compound = "CC1(CN[C@@H]2C[C@H]2c2ccccc2)CCN(C(=O)C2(N)CCCC2)CC1"
reportedresult = "< 100 nM"

[[record]]
compound = "COCC1(CN[C@@H]2C[C@H]2c2ccccc2)CCN(C(=O)[C@H]2CC[C@@H](CO)CC2)CC1"
reportedresult = "< 100 nM"

[[record]]
compound = "O=C(O)C1(CN2CCC(CN[C@@H]3C[C@H]3c3ccccc3)(COCc3ccccc3)CC2)CC1"
reportedresult = "< 100 nM"

[[record]]
compound = "N#Cc1ccc(CN2CC(CN[C@@H]3C[C@H]3c3ccccc3)C2)cc1 (relative stereo)"
reportedresult = "< 100 nM"

